Where do these numbers come from? They come from ChEMBL document CHEMBL3774328.

method: Intrinsic cytotoxicity against mouse NIH/3T3 cells by MTT assay
Format: cell-based, NIH3T3
Quick rule for you: CC50 under 30 µM gets satisfied, anything else gets not satisfied.

CC(=O)O[C@H]1CC[C@](C)(OC(=O)CNCC(C)C)[C@]23OC(C)(C)[C@H]([C@H](OC(=O)/C=C/c4ccccc4)[C@H](OC(=O)c4ccccc4)[C@]12C)[C@H]3OC(C)=O :: not satisfied
CC(=O)O[C@H]1CC[C@](C)(O)[C@]23OC(C)(C)[C@H]([C@H](OC(=O)/C=C/c4ccccc4)[C@H](OC(=O)c4ccccc4)[C@]12C)[C@H]3OC(C)=O :: satisfied
CC(=O)O[C@H]1CC[C@](C)(O)[C@]23OC(C)(C)[C@H]([C@H](OC(=O)CCc4ccccc4)[C@H](OC(=O)c4ccccc4)[C@]12C)[C@H]3O :: satisfied
COC(=O)CCC(=O)O[C@@H]1[C@H]2[C@H](OC(=O)/C=C/c3ccccc3)[C@H](OC(=O)c3ccccc3)[C@]3(C)[C@@H](OC(C)=O)CC[C@](C)(O)[C@@]13OC2(C)C :: not satisfied
CC(=O)O[C@H]1CC[C@](C)(O)[C@@]23OC(C)(C)[C@@H](C2=O)[C@H](OC(=O)/C=C/c2ccccc2)[C@H](OC(=O)c2ccccc2)[C@]13C :: satisfied
CC(=O)O[C@H]1CC[C@](C)(O)[C@]23OC(C)(C)[C@H]([C@H](OC(=O)/C=C/c4ccccc4)[C@H](OC(=O)c4ccccc4)[C@]12C)[C@H]3OC(=O)c1ccccc1 :: not satisfied

Is the reported CC50 for CC(=O)O[C@H]1CC[C@](C)(O)[C@]23OC(C)(C)[C@H]([C@H](OC(=O)/C=C/c4ccccc4)[C@H](OC(=O)c4ccccc4)[C@]12C)[C@H]3OC(=O)N(C)C strictly below 30 µM?
not satisfied

Confirm or reject: CC50 of CC(=O)O[C@H]1CC[C@](C)(O)[C@]23OC(C)(C)[C@H]([C@H](OC(=O)/C=C/c4ccccc4)[C@H](OC(=O)c4ccccc4)[C@]12C)[C@H]3OS(C)(=O)=O lies strictly below 30 µM
not satisfied
